// reported polydispersity for each item listed
Test: Lipid nanoparticle size and polydispersity by dynamic light scattering
Type: physicochemical
Conditions: LNP of lipid/DSPC/cholesterol/PEG-lipid 50:10:38.5:1.5 encapsulating hEPO mRNA

[
  {
    "MOLECULE": "CCCCCCCCC(CCCCCCCC)COC(=O)CCCCCN(CC)CCN(CCO)CCCCCC(=O)OCC(CCCCCCCC)CCCCCCCC",
    "polydispersity": 0.118
  },
  {
    "MOLECULE": "CCCCCCCCC(CCCCCC)COC(=O)CCCCCN(CCCCN(CCO)CCCCC(COC(=O)CCCCCCC)COC(=O)CCCCCCC)C1CCCCC1 (stereo not drawn)",
    "polydispersity": 0.109
  },
  {
    "MOLECULE": "CCCCCCCCC(CCCCCCCC)CNC(=O)CCCCCN(CCN(CCCCO)CCCCCC(=O)OCC(CCCCCCCC)CCCCCCCC)C1CCC1",
    "polydispersity": 0.006
  },
  {
    "MOLECULE": "CCCCCCCCC(CCCCCCCC)COC(=O)CCCCCN(CCO)CCN(CCCCCC(=O)OCC(CCCCCCCC)CCCCCCCC)C1CCOCC1",
    "polydispersity": 0.045
  },
  {
    "MOLECULE": "CCCCCCCCCCCC(=O)OCCCCCN(CCN(CCO)CCCCCOC(=O)CC(CCCCCCCC)CCCCCCCC)C1CCCCC1",
    "polydispersity": 0.044
  },
  {
    "MOLECULE": "CCCCCCCCC(CCCCCC)CNC(=O)CCCCCN(CCO)CCN(CCCCC(COC(=O)CCCCCCC)COC(=O)CCCCCCC)C1CCCC1 (stereo not drawn)",
    "polydispersity": 0.107
  }
]
